# target or test system: hPK-M2 (Homo sapiens)
# assay text: Fluorescent pyruvate kinase-lactate dehydrogenase (LDH) coupled secondary assay
# Type: biochemical
# cond: read-out: maximum response, LDH assay
A collection of molecules and their measured Emax
reported property: Emax (%)

                           smiles_structure  unit_spec  censoring_sign  numeric_readout
0       Cn1c2ccsc2c2ncn(Cc3ccccc3F)c(=O)c21          %               <               80
1  Cn1c2cc(C=O)sc2c2cnn(Cc3ccccc3F)c(=O)c21          %               =              239
2  COc1ccc(S(=O)(=O)N2CCN(S(=O)(=O)c3ccc4c(c3)OCCO4)CC2)cc1          %               =              224
3  Cc1cc2c(s1)c1cnn(Cc3ccc(Cl)cc3)c(=O)c1n2C          %               =              191
4  O=C1CN(S(=O)(=O)c2c(F)cccc2F)CCN1S(=O)(=O)c1ccc2c(c1)OCCO2          %               =               87
5  O=S(=O)(c1ccc2ccccc2c1)N1CCN(S(=O)(=O)c2c(F)cccc2F)CC1          %               =              161

* * *

# target or test system: hPK-M2 (Homo sapiens, UniProt P14618)
# Sequence (P14618 whole entry): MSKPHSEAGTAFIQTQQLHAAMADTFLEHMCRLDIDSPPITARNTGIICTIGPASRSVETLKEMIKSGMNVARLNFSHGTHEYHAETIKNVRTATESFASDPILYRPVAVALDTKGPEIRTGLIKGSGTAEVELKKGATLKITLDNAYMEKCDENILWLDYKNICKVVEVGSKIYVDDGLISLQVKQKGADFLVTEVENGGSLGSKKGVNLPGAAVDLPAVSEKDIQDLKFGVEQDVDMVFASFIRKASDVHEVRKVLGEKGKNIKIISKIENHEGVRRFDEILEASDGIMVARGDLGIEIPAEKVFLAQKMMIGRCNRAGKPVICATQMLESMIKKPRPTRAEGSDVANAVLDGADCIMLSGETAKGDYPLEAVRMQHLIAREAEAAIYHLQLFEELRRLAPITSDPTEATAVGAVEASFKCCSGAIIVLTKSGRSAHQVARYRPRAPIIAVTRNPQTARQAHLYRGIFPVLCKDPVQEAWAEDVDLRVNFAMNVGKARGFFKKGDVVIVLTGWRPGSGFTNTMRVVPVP
# assay text: Luminescent pyruvate kinase-luciferase coupled assay (KinaseGlo)
# Format: biochemical
# cond: KinaseGlo; % activation at 57 μM of compound
# Experimental: Luminescent Pyruvate Kinase-Luciferase Coupled Assay. Production of a luminescent signal based on the generation of ATP by pyruvate kinase was determined by using the ATP-dependent enzyme firefly luciferase. […] Microtiter plates were incubated at r.t. for 1 hour and 2 uL of luciferase detection mix (Kinase-Glo, Promega at 4° C. protected from light) was added and luminescence was read with a ViewLux (Perkin Elmer) using a 5 second exposure/plate. […]
The entries below come with measured hPK, M2 Max. Res. values attached.
reported property: hPK, M2 Max. Res. (%)

                                   compound  reported_property  unit_spec  numeric_readout
0  CCNc1cccc(S(=O)(=O)N2CCN(S(=O)(=O)c3ccc4c(c3)OCCO4)CC2)c1  hPK, M2 Max. Res.          %            63.00
1  COc1cc(F)c(S(=O)(=O)N2CCN(S(=O)(=O)c3ccc(N)cc3)CC2)c(F)c1  hPK, M2 Max. Res.          %            92.46
2  CN1CCOc2ccc(S(=O)(=O)N3CCN(S(=O)(=O)c4c(F)cccc4F)CC3)cc21  hPK, M2 Max. Res.          %             93.5
3  Cc1cc2c(s1)c1cnn(Cc3ccc(C)c(F)c3F)c(=O)c1n2C  hPK, M2 Max. Res.          %             80.5
4  CC(O)c1cc2c(s1)c1cnn(Cc3ccccc3F)c(=O)c1n2C (centres unmarked)  hPK, M2 Max. Res.          %            119.7
5  COc1ccc(Cn2ncc3c4sc(C)cc4n(C)c3c2=O)cc1F  hPK, M2 Max. Res.          %             68.2
6  COc1cc(F)c(S(=O)(=O)N2CCN(S(=O)(=O)c3ccco3)CC2)c(F)c1  hPK, M2 Max. Res.          %            82.49
7  COc1cc(F)c(S(=O)(=O)N2CCN(S(=O)(=O)c3cccc(NC(C)=O)c3)CC2)c(F)c1  hPK, M2 Max. Res.          %            60.00

* * *

# target or test system: hPK-M2 (Homo sapiens, UniProt P14618)
# assay text: Fluorescent pyruvate kinase-lactate dehydrogenase (LDH) coupled secondary assay
# Format: biochemical
# cond: tables, read-out: LDH hPK, M2 AC50
Reported AC50 maps to class as: label 0: < 100 nM; label 1: ≥ 100 nM and < 400 nM; label 2: ≥ 400 nM

                            smiles_structure                  target_or_test_system  class_assignment
 0  COc1cc(F)c(S(=O)(=O)N2CCN(S(=O)(=O)c3ccc(N)cc3)CC2)c(F)c1  hPK-M2 (Homo sapiens, UniProt P14618)           label 1
 1  COc1cc(F)c(S(=O)(=O)N2CCN(S(=O)(=O)c3cccs3)CC2)c(F)c1  hPK-M2 (Homo sapiens, UniProt P14618)           label 0
 2  Nc1ccc(S(=O)(=O)N2CCCN(S(=O)(=O)c3ccc4c(c3)OCCO4)CC2)cc1  hPK-M2 (Homo sapiens, UniProt P14618)           label 1
 3  Nc1cccc(S(=O)(=O)N2CCN(S(=O)(=O)c3c(F)cccc3F)CC2)c1  hPK-M2 (Homo sapiens, UniProt P14618)           label 1
 4  CC(=O)Nc1ccc(S(=O)(=O)N2CCCN(S(=O)(=O)c3ccc4c(c3)OCCO4)CC2)cc1  hPK-M2 (Homo sapiens, UniProt P14618)           label 2
 5  COc1cc(F)c(S(=O)(=O)N2CCN(S(=O)(=O)c3ccco3)CC2)c(F)c1  hPK-M2 (Homo sapiens, UniProt P14618)           label 1
 6  Nc1cccc(S(=O)(=O)N2CCN(S(=O)(=O)c3ccc4c(c3)OCCO4)CC2)c1  hPK-M2 (Homo sapiens, UniProt P14618)           label 1
 7  COc1cc(F)c(S(=O)(=O)N2CCN(S(=O)(=O)c3cccc(NC(C)=O)c3)CC2)c(F)c1  hPK-M2 (Homo sapiens, UniProt P14618)           label 2
 8  O=S(=O)(c1cccc(O)c1)N1CCN(S(=O)(=O)c2c(F)cccc2F)CC1  hPK-M2 (Homo sapiens, UniProt P14618)           label 1
 9  COc1cc(F)c(S(=O)(=O)N2CCCN(S(=O)(=O)c3cccc(NC(C)=O)c3)CC2)c(F)c1  hPK-M2 (Homo sapiens, UniProt P14618)           label 2
10  COc1cc(F)c(S(=O)(=O)N2CCN(S(=O)(=O)c3cccc(N)c3)CC2)c(F)c1  hPK-M2 (Homo sapiens, UniProt P14618)           label 0
11  CC(=O)Nc1cccc(S(=O)(=O)N2CCCN(S(=O)(=O)c3ccc4c(c3)OCCO4)CC2)c1  hPK-M2 (Homo sapiens, UniProt P14618)           label 2
12  COc1cc(F)c(S(=O)(=O)N2CCCN(S(=O)(=O)c3ccc(N)cc3)CC2)c(F)c1  hPK-M2 (Homo sapiens, UniProt P14618)           label 2
13  Nc1ccc(S(=O)(=O)N2CCN(S(=O)(=O)c3ccc4c(c3)OCCO4)CC2)cc1  hPK-M2 (Homo sapiens, UniProt P14618)           label 1
14  Cc1ccc(N[S+](=O)([O-])c2ccc3c(c2)CCC(=O)N3)cc1C  hPK-M2 (Homo sapiens, UniProt P14618)           label 1
15  COc1cc(F)c(S(=O)(=O)N2CCCN(S(=O)(=O)c3cccc(N)c3)CC2)c(F)c1  hPK-M2 (Homo sapiens, UniProt P14618)           label 1
16  COc1cc(F)c(S(=O)(=O)N2CCCN(S(=O)(=O)c3ccc4c(c3)OCCO4)CC2)c(F)c1  hPK-M2 (Homo sapiens, UniProt P14618)           label 0

* * *

# target or test system: hPK-M2 (Homo sapiens, UniProt P14618)
# assay text: Luminescent pyruvate kinase-luciferase coupled assay (KinaseGlo)
# Assay type: biochemical
# cond: luminescent pyruvate kinase-luciferase coupled assay (KinaseGlo), tables; read-out: hPK, M2 AC50
reported property: AC50 (nM)

                           smiles_structure  reported_property  numeric_readout
0  Cc1cc2c(s1)c1cnn(Cc3ccc(C(F)(F)F)cc3)c(=O)c1n2C               AC50              553
1  Cc1cc2c(s1)c1cnn(Cc3cccc(F)c3)c(=O)c1n2C               AC50              225
2  Cc1cc2c(s1)c1cnn(Cc3cccc(C)c3F)c(=O)c1n2C               AC50               35
3   COc1cc2c(s1)c1cnn(Cc3ccccc3F)c(=O)c1n2C               AC50               86
4  CN1CCOc2ccc(S(=O)(=O)N3CCN(S(=O)(=O)c4c(F)cccc4F)CC3)cc21               AC50             2710
5  O=S(=O)(c1c(F)cccc1F)N1CCN(S(=O)(=O)c2c(F)cccc2F)CC1               AC50               66
6  CCNc1cccc(S(=O)(=O)N2CCN(S(=O)(=O)c3ccc4c(c3)OCCO4)CC2)c1               AC50               81
7  COc1cc(F)c(S(=O)(=O)N2CCCN(S(=O)(=O)c3ccc4c(c3)OCCO4)CC2)c(F)c1               AC50             36.6
